Hello, the source for this data is patent US20230150929A1, in case you need it.

# testedOn: UniProt O95398
# assayText: 8-NBD-cAMP competition binding assay, EPAC1-CNBD
# testSettings: compound 10 µM, EPAC1-CNBD 0.8 µM, 8-NBD-cAMP 62.5 nM; mean ± SEM; lower RFI = stronger binding
Criterion: RFI (%) (relative fluorescence intensity), Table 4 strictly under 60%. Met: Yes. Not met: No.

compound	assignedClass
O=C(COc1ccc2ccccc2c1)NS(=O)(=O)c1cccc(F)c1 [Compound 25c]	No
Cc1cc(Br)cc(S(=O)(=O)NC(=O)COc2ccc3ccccc3c2)c1 [Compound 25j]	Yes
COc1ccc(OC)c(S(=O)(=O)NC(=O)COc2ccc3ccccc3c2)c1 [Compound 25h]	No

Req: Hello, is RFI (%) (relative fluorescence intensity), Table 4 of the following compound strictly smaller than 60%? COC(=O)c1cccc(S(=O)(=O)NC(=O)COc2ccc3ccccc3c2)c1 [Compound 25ad]
Resp: No

Req: Follow-up entry: COc1ccc2ccc(OCC(=O)NS(=O)(=O)c3ccc(N)cc3OC)cc2c1 [Compound 25n]
Resp: Yes

Req: Follow-up entry: O=C(COc1ccc2ccccc2c1)NS(=O)(=O)c1ccccc1F [Compound 25b]
Resp: No

Req: Follow-up entry: O=C(COc1ccc2ccccc2c1)NS(=O)(=O)c1cccc([N+](=O)[O-])c1 [Compound 25x]
Resp: No

Req: Follow-up entry: Cc1cc(Nc2ncccc2C(F)(F)F)cc(S(=O)(=O)NC(=O)COc2ccc3ccccc3c2)c1 [Compound 25u]
Resp: Yes

Req: Follow-up entry: COc1ccc(S(=O)(=O)NC(=O)COc2ccc3ccccc3c2)cc1OC [Compound 25i]
Resp: Yes

Req: Follow-up entry: O=C(COc1ccc2ccccc2c1)NS(=O)(=O)c1cccc(-c2ccoc2)c1 [Compound 25ab]
Resp: Yes

Req: Follow-up entry: COc1cccc(S(=O)(=O)NC(=O)COc2ccc3ccccc3c2)c1 [Compound 25z]
Resp: Yes

Req: Follow-up entry: Cc1cc(-c2ccnn2C)cc(S(=O)(=O)NC(=O)COc2ccc3ccccc3c2)c1 [Compound 25t]
Resp: Yes

Req: Follow-up entry: O=C(COc1ccc2ccccc2c1)NS(=O)(=O)c1ccccc1 [Compound 25y]
Resp: Yes

Req: Follow-up entry: COc1ccc(S(=O)(=O)NC(=O)COc2ccc3ccccc3c2)c(OC)c1 [Compound 25g]
Resp: Yes

Req: Follow-up entry: COc1ccc2ccc(OCC(=O)NS(=O)(=O)c3cc(Cl)cc(Cl)c3)cc2c1 [Compound 25l]
Resp: Yes

Req: Follow-up entry: O=C(COc1ccc2ccccc2c1)NS(=O)(=O)C1CCCCC1 [Compound 25aa]
Resp: No

Req: Follow-up entry: Cc1ccc(S(=O)(=O)NC(=O)COc2ccc3ccccc3c2)cc1 [Compound 25w, 2-(Naphthalen-2-yloxy)-N-tosylacetamide]
Resp: Yes

* * *

Provide the reported IC50 of each item.
# testedOn: EPAC1-CNBD (Homo sapiens, UniProt O95398)
# Sequence (O95398 169-318 isoform O95398-3): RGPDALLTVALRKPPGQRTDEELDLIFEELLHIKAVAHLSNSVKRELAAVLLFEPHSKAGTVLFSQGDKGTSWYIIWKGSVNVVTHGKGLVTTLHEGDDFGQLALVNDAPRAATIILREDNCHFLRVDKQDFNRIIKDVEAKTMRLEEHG
Give bare numbers, in nM.

Observe how each entry below is paired with its result.
compound	testedOn	IC50 (nM)
COc1ccc2ccc(OCC(=O)NS(=O)(=O)c3ccc(N)cc3OC)cc2c1 [Compound 25n]	EPAC1-CNBD (Homo sapiens, UniProt O95398)	900
COc1ccc(S(=O)(=O)NC(=O)COc2ccc3ccccc3c2)c(OC)c1 [Compound 25g]	EPAC1-CNBD (Homo sapiens, UniProt O95398)	4800

Next, consider the following compound.
Req: Value lookup for IC50; key = COc1ccc2ccc(OCC(=O)NS(=O)(=O)c3ccc4ccccc4c3)cc2c1 [Compound 25q]
Resp: 2200
